The following compounds are shown together with reported pIC50 values.
Test system: MOLM-13 cells
Assay: Cell viability assay (CellTiter-Glo) in MOLM-13 cells, alone or with gilteritinib
Assay type: cell-based
Conditions: Homo sapiens, MOLM-13, 72 h, MOLM-13 cells, compound alone (without gilteritinib), three days, CellTiter-Glo; read-out: MOLM-13 IC50
pIC50: −log10 of the molar value.

[
  {
    "compound": "Cc1nn([C@H]2C[C@@H](CCCNc3ccc4c(c3)C(=O)N(C3CCC(=O)NC3=O)C4=O)C2)cc1-c1cnc2cc(N3CCOCC3)ccc2n1 (some centres unmarked)",
    "endpoint": "pIC50",
    "observedResult": "7.00 to 8.00"
  },
  {
    "compound": "CN1CCN(c2ccc3nc(-c4cnn([C@H]5C[C@H](CCCNc6ccc7c(c6)C(=O)N(C6CCC(=O)NC6=O)C7=O)C5)c4)cnc3c2)CC1 (some centres unmarked)",
    "endpoint": "pIC50",
    "observedResult": "7.00 to 8.00"
  },
  {
    "compound": "CNc1cccnc1-c1cn([C@H]2C[C@H](CNc3ccc4c(c3)C(=O)N(C3CCC(=O)NC3=O)C4=O)C2)nc1C1CC1 (some centres unmarked)",
    "endpoint": "pIC50",
    "observedResult": "6.00 to 7.00"
  },
  {
    "compound": "O=C1CCC(N2C(=O)c3ccc(NCCCCCCc4ncc(-c5cnc6ccccc6n5)s4)cc3C2=O)C(=O)N1 (centres unmarked)",
    "endpoint": "pIC50",
    "observedResult": "7.00 to 8.00"
  },
  {
    "compound": "Cc1nn([C@H]2C[C@H](CCCNc3ccc4c(c3)C(=O)N(C3CCC(=O)NC3=O)C4=O)C2)cc1-c1cccc(N2CCOCC2)n1 (some centres unmarked)",
    "endpoint": "pIC50",
    "observedResult": "< 6.00"
  },
  {
    "compound": "O=C1CCC(N2C(=O)c3ccc(NCCC[C@H]4C[C@H](n5cc(-c6ccc(Cl)cn6)cn5)C4)cc3C2=O)C(=O)N1 (some centres unmarked)",
    "endpoint": "pIC50",
    "observedResult": "> 8.00"
  }
]

Entry O=C1CCC(N2C(=O)c3ccc(N4CCC(CCCn5cc(-c6cnc7ccccc7n6)cn5)CC4)cc3C2=O)C(=O)N1 (centres unmarked) — recorded pIC50 = < 6.00

// field: pIC50; key: Nc1cccc(-c2cn([C@H]3C[C@H](CNc4ccc5c(c4)C(=O)N(C4CCC(=O)NC4=O)C5=O)C3)nc2C2CC2)n1 (some centres unmarked) ; value = < 6.00

So, Cc1cccc(-c2cnn(CCCCCCNc3ccc4c(c3)C(=O)N(C3CCC(=O)NC3=O)C4=O)c2)n1 (centres unmarked) ? Its pIC50 was 6.00 to 7.00

====

IC50 by entry:
Tested on: MOLM-13 cells
Experiment: Cell viability assay (CellTiter-Glo) in MOLM-13 cells, alone or with gilteritinib
Type: cell-based
Conditions: Homo sapiens, MOLM-13, 72 h, MOLM-13 cells, compound alone (without gilteritinib), three days, CellTiter-Glo; read-out: MOLM-13 IC50

Field: example entries. Status: answers known.
[
  {
    "compound": "CC(C)c1cccc(-c2cnn([C@H]3C[C@H](CCCNc4ccc5c(c4)C(=O)N(C4CCC(=O)NC4=O)C5=O)C3)c2)n1 (some centres unmarked)",
    "assaySystem": "MOLM-13 cells",
    "IC50": "100 to 1000 nM"
  },
  {
    "compound": "O=C1CCC(N2C(=O)c3ccc(NCCCCCCn4ncc(-c5cnc6ccccc6n5)c4C(F)F)cc3C2=O)C(=O)N1 (centres unmarked)",
    "assaySystem": "MOLM-13 cells",
    "IC50": "10 to 100 nM"
  },
  {
    "compound": "CN1CCN(c2ccc3ncc(-c4cnn(C5CC(CCCNc6ccc7c(c6)C(=O)N(C6CCC(=O)NC6=O)C7=O)C5)c4)nc3c2)CC1 (centres unmarked)",
    "assaySystem": "MOLM-13 cells",
    "IC50": "> 1000 nM"
  },
  {
    "compound": "O=C1CCC(N2Cc3ccc(CCCCCCC(=O)N4CCC(n5cc(-c6ccc7ccccc7n6)cn5)CC4)cc3C2=O)C(=O)N1 (centres unmarked)",
    "assaySystem": "MOLM-13 cells",
    "IC50": "100 to 1000 nM"
  },
  {
    "compound": "O=C1CCC(N2C(=O)c3ccc(NCCCCCCn4cc(-c5cnc6cccc(C7CCNCC7)c6n5)cn4)cc3C2=O)C(=O)N1 (centres unmarked)",
    "assaySystem": "MOLM-13 cells",
    "IC50": "> 1000 nM"
  }
]

Attention now shifts to the item below.
Looking up O=C1CCC(N2C(=O)c3ccc(NCCC[C@H]4C[C@H](n5cc(-c6cccc(NC7CCOCC7)n6)cn5)C4)cc3C2=O)C(=O)N1 (some centres unmarked) , I see its IC50 listed as > 1000 nM

====

IC50 listing for selected compounds.
System: MV4;11 cells
Assay: Cell viability assay (CellTiter-Glo) in MV4;11 cells, alone or with gilteritinib
Type: cell-based
Conditions: Homo sapiens, MV4-11, 72 h, MV4;11 cells, compound with gilteritinib 10 nM, three days, CellTiter-Glo; read-out: MV4; 11 IC50 gilteritinib

Here is how some compounds turned out for IC50.
[
  {
    "compound": "Cn1ccc2cnc(-c3cn([C@H]4C[C@H](CNc5ccc6c(c5)C(=O)N(C5CCC(=O)NC5=O)C6=O)C4)nc3C3CC3)cc21 (stereo partly shown)",
    "assaySystem": "MV4;11 cells",
    "endpoint": "IC50",
    "observedResult": "< 10 nM"
  },
  {
    "compound": "O=C1CCC(N2C(=O)c3ccc(NC[C@H]4C[C@H](n5nc(C6CC6)c6cccnc65)C4)cc3C2=O)C(=O)N1 (stereo partly shown)",
    "assaySystem": "MV4;11 cells",
    "endpoint": "IC50",
    "observedResult": "< 10 nM"
  },
  {
    "compound": "Cc1cccc(-c2cn([C@H]3C[C@H](CNc4ccc5c(c4)C(=O)N(C4CCC(=O)NC4=O)C5=O)C3)nc2C(=O)N(C)C)n1 (stereo partly shown)",
    "assaySystem": "MV4;11 cells",
    "endpoint": "IC50",
    "observedResult": "> 1000 nM"
  }
]

Now for a further compound.
Record O=C1CCC(N2C(=O)c3ccc(NCCC[C@H]4C[C@H](n5cc(C6CCOCC6)cn5)C4)cc3C2=O)C(=O)N1 (stereo partly shown) , field IC50: > 1000 nM

====

System: MOLM-13 cells
Test: Cell viability assay (CellTiter-Glo) in MOLM-13 cells, alone or with gilteritinib
Assay type: cell-based
Settings: Homo sapiens, MOLM-13, 72 h, MOLM-13 cells, compound alone (without gilteritinib), three days, CellTiter-Glo; read-out: MOLM-13 IC50
pIC50: −log10 of the molar value.
Recorded pIC50 for the following compounds

[
  {
    "compound": "O=C1CCC(N2C(=O)c3ccc(NCCCCCCn4cc(-c5cnc6ccc(C7CCOCC7)cc6n5)c(C5CC5)n4)cc3C2=O)C(=O)N1 (stereo not drawn)",
    "endpoint": "pIC50",
    "observedResult": "7.00 to 8.00"
  },
  {
    "compound": "O=C1CCC(N2C(=O)c3ccc(NC[C@H]4C[C@H](n5cc(-c6cccc(Cl)c6)c(C6CC6)n5)C4)cc3C2=O)C(=O)N1 (stereo partly drawn)",
    "endpoint": "pIC50",
    "observedResult": "6.00 to 7.00"
  },
  {
    "compound": "CN1CCN(c2cccc3nc(-c4cnn([C@H]5C[C@H](CCCNc6ccc7c(c6)C(=O)N(C6CCC(=O)NC6=O)C7=O)C5)c4)cnc23)CC1 (stereo partly drawn)",
    "endpoint": "pIC50",
    "observedResult": "6.00 to 7.00"
  },
  {
    "compound": "O=C1CCC(N2C(=O)c3ccc(NCCC[C@H]4C[C@@H](n5cc(-c6cnc7cc(C8CCNCC8)ccc7n6)cn5)C4)cc3C2=O)C(=O)N1 (stereo partly drawn)",
    "endpoint": "pIC50",
    "observedResult": "6.00 to 7.00"
  },
  {
    "compound": "O=C1CCC(N2C(=O)c3ccc(NC[C@H]4C[C@H](n5cc(-c6nccc7cnccc67)c(C6CC6)n5)C4)cc3C2=O)C(=O)N1 (stereo partly drawn)",
    "endpoint": "pIC50",
    "observedResult": "> 8.00"
  }
]

Observed pIC50 on MOLM-13 cells, entry O=C1CCC(N2C(=O)c3ccc(NC[C@H]4C[C@H](n5cc(-c6cnc7c(C8CNC8)cccc7n6)c(C6CC6)n5)C4)cc3C2=O)C(=O)N1 (stereo partly drawn) , equals < 6.00
